Where these numbers come from: patent US20030021776

Target: T1, HUM 17A (VZ+472) (synthetic)
T1 chain: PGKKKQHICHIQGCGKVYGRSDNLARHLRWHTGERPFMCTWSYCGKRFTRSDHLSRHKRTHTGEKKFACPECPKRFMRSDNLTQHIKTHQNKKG
Experiment: EMSA; 17 mM Tris, 170 mM KCl, 1.7 mM MgCl2, Zn
Details: tags: MBP fusion (pMal-c2), SP1 backbone
Recorded Metric: pKd
pKd field: float, defined as -log10 of concentration (mol/L).

Answer with the recorded pKd for the binder listed here: VZ+472 target (dsDNA) DNA 1: AAGGGGGAGG DNA 2: CCTCCCCCTT
11.22
